Cited source for all entries: ChEMBL document CHEMBL1141584

assay: Total body clearance in Wistar rat at 50 mg/kg, po; assay type: ADME, organism-based; design: dose 50 mg/kg, route oral; conditions: in vivo
CL/F values for the compounds below.

# Compound, Display Unit, CL/F
records = [
    ("CC(c1ccc(-c2ccsc2)cc1)n1ccnc1 (stereo not drawn)", "L/h/kg", 2.01),
    ("CCC(c1ccc(-c2ccsc2)cc1)n1ccnc1 (stereo not drawn)", "L/h/kg", 7.48),
    ("C[C@]12CC[C@H](O)CC1=CC[C@@H]1[C@@H]2CC[C@]2(C)C(c3cccnc3)=CC[C@@H]12", "L/h/kg", 11.2),
]

====

inhibition at 10 µM values for the molecules below.
target: CYP2C19 (Homo sapiens, UniProt P33261); experiment: Inhibition of recombinant CYP2C19 at 10 uM; format: ADME
Sequence (P33261 whole entry): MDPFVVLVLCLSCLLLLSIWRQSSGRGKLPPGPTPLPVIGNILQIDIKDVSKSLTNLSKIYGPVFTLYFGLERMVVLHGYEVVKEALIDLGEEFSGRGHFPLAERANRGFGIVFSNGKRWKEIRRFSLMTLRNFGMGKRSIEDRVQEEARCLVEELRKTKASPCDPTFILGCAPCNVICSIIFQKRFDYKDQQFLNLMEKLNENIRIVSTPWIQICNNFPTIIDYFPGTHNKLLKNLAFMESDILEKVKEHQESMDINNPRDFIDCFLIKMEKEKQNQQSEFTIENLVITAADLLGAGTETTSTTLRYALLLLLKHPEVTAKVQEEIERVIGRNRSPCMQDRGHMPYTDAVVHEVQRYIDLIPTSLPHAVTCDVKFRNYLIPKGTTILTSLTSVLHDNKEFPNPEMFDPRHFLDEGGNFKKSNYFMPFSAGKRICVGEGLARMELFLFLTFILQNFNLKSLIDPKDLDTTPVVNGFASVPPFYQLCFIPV
Parameter Measured: inhibition at 10 µM (%)

# Molecule, Parameter Measured, Test Value
records = [
    ("CCC(c1ccc(-c2ccsc2)cc1)n1ccnc1 (stereo not given)", "inhibition at 10 µM", 100),
    ("CC(=O)N1CCN(c2ccc(OCC3COC(Cn4ccnc4)(c4ccc(Cl)cc4Cl)O3)cc2)CC1 (stereo not given)", "inhibition at 10 µM", 79),
    ("CCC(c1cc(-c2ccc(F)c(F)c2)cs1)n1ccnc1 (stereo not given)", "inhibition at 10 µM", 97),
    ("CC(c1ccc(-c2ccsc2)cc1)n1ccnc1 (stereo not given)", "inhibition at 10 µM", 99),
    ("C[C@]12CC[C@H](O)CC1=CC[C@@H]1[C@@H]2CC[C@]2(C)C(c3cccnc3)=CC[C@@H]12", "inhibition at 10 µM", 21),
]

====

inhibition at 1 µM values for the compounds below.
Molecular target: CYP1A2 (Homo sapiens)
Sequence (P05177 whole entry): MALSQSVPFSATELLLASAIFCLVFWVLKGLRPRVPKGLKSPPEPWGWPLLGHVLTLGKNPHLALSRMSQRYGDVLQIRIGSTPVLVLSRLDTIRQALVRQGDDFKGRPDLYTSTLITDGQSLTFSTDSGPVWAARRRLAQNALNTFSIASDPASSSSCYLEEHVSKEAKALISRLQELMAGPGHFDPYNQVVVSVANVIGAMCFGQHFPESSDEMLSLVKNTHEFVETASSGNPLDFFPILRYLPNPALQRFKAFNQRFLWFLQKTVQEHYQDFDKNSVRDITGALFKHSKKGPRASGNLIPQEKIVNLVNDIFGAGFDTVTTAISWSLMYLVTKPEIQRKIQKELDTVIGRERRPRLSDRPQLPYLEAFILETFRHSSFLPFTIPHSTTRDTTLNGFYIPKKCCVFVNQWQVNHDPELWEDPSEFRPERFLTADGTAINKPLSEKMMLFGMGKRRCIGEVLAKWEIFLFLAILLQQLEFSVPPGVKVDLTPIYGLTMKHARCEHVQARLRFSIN
Experiment: Inhibition of recombinant CYP1A2 at 1 uM
Format: ADME

# Compound, Display Unit, inhibition at 1 µM
records = [
    ("CCC(c1ccc(-c2ccsc2)cc1)n1ccnc1 (stereo not drawn)", "%", 98),
    ("CC(c1ccc(-c2ccsc2)cc1)n1ccnc1 (stereo not drawn)", "%", 97),
    ("CCC(c1cc(-c2ccc(F)c(F)c2)cs1)n1ccnc1 (stereo not drawn)", "%", 93),
]

====

inhibition at 0.2 µM values for the compounds below.
Target: Steroid 17-alpha-hydroxylase/17,20 lyase (Homo sapiens, UniProt P05093)
Sequence (P05093 whole entry): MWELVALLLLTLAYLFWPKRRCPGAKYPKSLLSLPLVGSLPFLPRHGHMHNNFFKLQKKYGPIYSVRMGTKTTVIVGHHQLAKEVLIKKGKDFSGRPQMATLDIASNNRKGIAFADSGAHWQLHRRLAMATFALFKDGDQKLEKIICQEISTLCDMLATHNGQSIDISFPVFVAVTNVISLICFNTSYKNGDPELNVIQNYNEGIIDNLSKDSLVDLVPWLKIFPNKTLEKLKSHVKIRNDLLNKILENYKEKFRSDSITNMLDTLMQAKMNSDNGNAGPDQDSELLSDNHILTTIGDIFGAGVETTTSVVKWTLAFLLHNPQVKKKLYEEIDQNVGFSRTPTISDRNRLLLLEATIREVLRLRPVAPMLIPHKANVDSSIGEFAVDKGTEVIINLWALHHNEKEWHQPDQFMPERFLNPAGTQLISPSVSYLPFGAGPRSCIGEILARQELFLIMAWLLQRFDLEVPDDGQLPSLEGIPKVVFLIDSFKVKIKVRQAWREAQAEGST
Test: Inhibition of human CYP17 expressed in Escherichia coli co-expressed with NADPH-P450 reductase at 0.2 uM

# Item Smiles, inhibition at 0.2 µM / %
rows = [
    ("ClCc1ccc(-c2ccc(Cn3ccnc3)cc2)cn1", 9),
    ("Fc1ccc(-c2ccc(Cn3ccnc3)cc2)cn1", 4),
    ("Nc1cccc(-c2ccc(Cn3ccnc3)cn2)c1", 2),
    ("COc1ccc(-c2csc(Cn3ccnc3)c2)cc1", 0),
]

====

inhibition at 0.2 µM values for the compounds below.
target: Steroid 17-alpha-hydroxylase/17,20 lyase (Homo sapiens); assay: Inhibition of human CYP17 expressed in Escherichia coli co-expressed with NADPH-P450 reductase at 0.2 uM
Parameter Measured: inhibition at 0.2 µM

# Compound, Test Value
measured = [
    ("c1cn(Cc2ccc(-c3ccoc3)cc2)cn1", "3%"),
    ("CC(c1ccc(N2CCOCC2)cc1)n1ccnc1 (configuration not stated)", "5%"),
    ("CCC(c1ccc(-c2cscc2C)cc1)n1ccnc1 (configuration not stated)", "27%"),
    ("CCC(c1ccc(-c2cscc2C)cc1F)n1ccnc1 (configuration not stated)", "41%"),
    ("COc1ccc(-c2ccc(Cn3ccnc3)cn2)cc1OC", "1%"),
    ("c1ccc(-c2csc(Cn3ccnc3)c2)cc1", "0%"),
    ("COc1ccc(-c2ccc(Cn3ccnc3)cn2)cc1", "0%"),
    ("COc1ccccc1-c1ccc(Cn2ccnc2)cn1", "0%"),
    ("Fc1ccc(-c2ccc(Cn3ccnc3)nc2)cc1", "0%"),
    ("COc1cccc(-c2csc(Cn3ccnc3)c2)c1", "0%"),
    ("COc1cccc(-c2ccc(Cn3ccnc3)cn2)c1", "0%"),
    ("CC(C)C(O)(c1ccc(-c2ccsc2)cc1)c1c[nH]cn1 (configuration not stated)", "7%"),
    ("Fc1ccc(-c2csc(Cn3ccnc3)c2)cc1", "0%"),
    ("c1cncc(-c2ccc(Cn3ccnc3)cc2)c1", "2%"),
    ("Cc1cscc1-c1ccc(Cn2ccnc2)cc1", "0%"),
    ("c1cn(Cc2ccc(-c3cncnc3)cc2)cn1", "5%"),
    ("CCC(c1ccc(-c2ccsc2Cl)cc1)n1ccnc1 (configuration not stated)", "40%"),
    ("CCC(c1ccc(-c2ccc(SC)s2)cc1)n1ccnc1 (configuration not stated)", "2%"),
    ("CCC(c1ccc(-c2ccsc2)cc1)n1ccnc1 (configuration not stated)", "28%"),
    ("CC(c1ccc(-c2ccsc2)cc1)n1ccnc1 (configuration not stated)", "21%"),
    ("Fc1ccc(-c2ccc(Cn3ccnc3)cn2)cc1", "5%"),
    ("Fc1ccc(-c2csc(Cn3ccnc3)c2)cc1F", "7%"),
    ("CSc1ccc(-c2ccc(Cn3ccnc3)cc2)s1", "3%"),
    ("CCC(c1cc(-c2ccc(F)c(F)c2)cs1)n1ccnc1 (configuration not stated)", "17%"),
    ("c1ccc(-c2ccc(Cn3ccnc3)cn2)cc1", "0%"),
    ("COc1ccc(-c2csc(Cn3ccnc3)c2)cc1OC", "0%"),
    ("Fc1ccc(-c2ccc(Cn3ccnc3)cn2)cc1F", "0%"),
]

====

target: Steroid 17-alpha-hydroxylase/17,20 lyase (Homo sapiens); experiment: Inhibition of human CYP17 expressed in Escherichia coli co-expressed with NADPH-P450 reductase at 2 uM
inhibition at 2 µM values for the molecules below.
Parameter Measured: inhibition at 2 µM (%)

# Molecule, Tgt, Parameter Measured, Display Unit, Test Value
data = [
    ("c1cn(Cc2ccc(-c3cncnc3)cc2)cn1", "Steroid 17-alpha-hydroxylase/17,20 lyase (Homo sapiens)", "inhibition at 2 µM", "%", 3),
    ("CCC(c1ccc(-c2ccsc2)cc1)n1ccnc1 (stereo not drawn)", "Steroid 17-alpha-hydroxylase/17,20 lyase (Homo sapiens)", "inhibition at 2 µM", "%", 83),
    ("CCC(c1ccc(-c2cscc2C)cc1F)n1ccnc1 (stereo not drawn)", "Steroid 17-alpha-hydroxylase/17,20 lyase (Homo sapiens)", "inhibition at 2 µM", "%", 92),
    ("CSc1ccc(-c2ccc(Cn3ccnc3)cc2)s1", "Steroid 17-alpha-hydroxylase/17,20 lyase (Homo sapiens)", "inhibition at 2 µM", "%", 35),
    ("COc1ccc(-c2ccc(Cn3ccnc3)cn2)cc1", "Steroid 17-alpha-hydroxylase/17,20 lyase (Homo sapiens)", "inhibition at 2 µM", "%", 0),
    ("Fc1ccc(-c2ccc(Cn3ccnc3)cc2)cn1", "Steroid 17-alpha-hydroxylase/17,20 lyase (Homo sapiens)", "inhibition at 2 µM", "%", 13),
    ("Fc1ccc(-c2ccc(Cn3ccnc3)cn2)cc1", "Steroid 17-alpha-hydroxylase/17,20 lyase (Homo sapiens)", "inhibition at 2 µM", "%", 5),
    ("c1cncc(-c2ccc(Cn3ccnc3)cc2)c1", "Steroid 17-alpha-hydroxylase/17,20 lyase (Homo sapiens)", "inhibition at 2 µM", "%", 14),
    ("c1ccc(-c2ccc(Cn3ccnc3)cn2)cc1", "Steroid 17-alpha-hydroxylase/17,20 lyase (Homo sapiens)", "inhibition at 2 µM", "%", 4),
    ("ClCc1ccc(-c2ccc(Cn3ccnc3)cc2)cn1", "Steroid 17-alpha-hydroxylase/17,20 lyase (Homo sapiens)", "inhibition at 2 µM", "%", 24),
    ("COc1cccc(-c2csc(Cn3ccnc3)c2)c1", "Steroid 17-alpha-hydroxylase/17,20 lyase (Homo sapiens)", "inhibition at 2 µM", "%", 24),
    ("CC(C)C(O)(c1ccc(-c2ccsc2)cc1)c1c[nH]cn1 (stereo not drawn)", "Steroid 17-alpha-hydroxylase/17,20 lyase (Homo sapiens)", "inhibition at 2 µM", "%", 49),
    ("COc1ccccc1-c1ccc(Cn2ccnc2)cn1", "Steroid 17-alpha-hydroxylase/17,20 lyase (Homo sapiens)", "inhibition at 2 µM", "%", 5),
]
